molecular target: BRD3 (BD1) (Homo sapiens); construct: a bromodomain of BRD2 (BD1) and BRD3 (BD1), one of the BET protein family; GST; assay: Binding inhibitory effect on BRD3 protein (AlphaScreen, same manner as 1-1); conditions: same manner as Experimental Example 1-1
Sequence (Q15059 34-140 limits assumed): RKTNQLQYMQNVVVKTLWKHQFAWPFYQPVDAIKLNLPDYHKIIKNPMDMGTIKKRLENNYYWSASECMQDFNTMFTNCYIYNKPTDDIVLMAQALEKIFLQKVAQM
recorded-endpoint: pIC50
Numbers only, as −log10 of the molar value.

Challenge: Look up pIC50 for this compound: CNC(=O)CC1C(=O)NCCN1C(=O)c1ccc(-c2ccccc2-c2cccc3c2CN(C)C3=O)o1 (centres unmarked)
Response given: 5.91

Please examine the following record next.
Challenge: Look up pIC50 for this compound: CNC(=O)C1(Cc2ccccc2)CCCN(Cc2ccc(-c3ccccc3-c3cccc4c3CN(C)C4=O)o2)C1 (centres unmarked)
Response given: 5.59
